- method summary: E. coli acrAB mutant growth effects, primary screen, E. coli filamentation inducers, strain DRC39, OD650, 24 h (AID 1178);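 further: growth measured as culture turbidity by optical density at 650 nm; test concentration not given here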
- assay conditions: higher = more signal, called active from +8 up or from −8 down
The class of a record is decided solely by its measured z-score; consult low = under -0.3, intermediate = from -0.3 up to 0.5, high = 0.5 and over

molecule | discrete label
COC(=O)C1(Cc2ccccc2)C=C2C(=C(c3ccccc3)C(=O)C2C)CN1 (configuration not stated) | low
C=CC1c2cc(O)c(OC)cc2CCN1Cc1sc2ccccc2c1Cl (configuration not stated) | intermediate
CCC[C@@H]1C[C@@]1(CCC)[C@@H](NP(=O)(c1ccccc1)c1ccccc1)c1ccc(Cl)cc1 | low
C=CCN1C(=O)[C@@]2(CCC(=O)OC(C)(C)C)N=C(c3ccc(OCCCO)cc3)O[C@H]2c2ccccc21 | high
C=C(CCCC)/C(=C/C[C@@H](OC(=O)c1ccncc1)c1cccc(OCCO)c1)c1cnc2ccccc2c1 | high
CCOC(=O)C1=CC[C@@H](c2ccccc2C(F)(F)F)N(S(=O)(=O)c2ccc(C)cc2)C1 | low
O=C1C[C@@](C(=O)NCC(F)(F)F)(c2ccc([N+](=O)[O-])cc2)[C@@H](c2ccc(CO)cc2)N1C1CCCCC1 | high
COCCCNC(=O)[C@]1(Cc2ccccc2N=[N+]=[N-])N=C(c2ccc(OCCCO)cc2)O[C@@H]1c1ccccc1N=[N+]=[N-] | intermediate
CC(C)CNC(=O)[C@@H]1c2ccccc2C(=O)N(Cc2cc(F)cc(C(F)(F)F)c2)[C@H]1c1ccc(CO)cc1 | high
COc1ccc(C(O)C2C=CC3C(=O)N(Cc4ccccc4)C(=O)C3N2n2cnnc2)c2ccccc12 (configuration not stated) | low
C=CC[C@@]1(C(=O)O)N=C(c2ccc(OCCCO)cc2)O[C@@H]1c1ccccc1 | intermediate
CCOC(=O)C1=CC[C@@H](c2ccccc2)N(S(=O)(=O)c2ccc(C)cc2)C1 | low
COc1c(C)cc(-c2cc3c(c(Cc4ccccc4)n2)[Si](C(C)C)(C(C)C)OC3)cc1C | low
COC(=O)[C@@]1(Cc2ccc(F)cc2)[C@H]2c3cc(C(=O)N4CCCC4)n(CCF)c3C[C@H]2CN1C(=O)c1ccccc1 | intermediate
NC(=O)NCC#Cc1ccc2c(c1)[C@]1(C(=O)N2)[C@H](C(=O)O)[C@H]2C(=O)O[C@H](c3ccccc3)[C@H](c3ccccc3)N2[C@@H]1c1ccccc1OCCO | high
O=C1O[C@H](c2ccccc2)[C@H](c2ccccc2)N2[C@H]1[C@@H](C(=O)O)[C@]1(C(=O)Nc3ccccc31)[C@H]2c1ccc(O)cc1 | intermediate
C=CC[C@H](OC(=O)Nc1ccc(OC)cc1)c1ccc(O)c2ccccc12 | high
